target desc: UniProtKB P35218
Sequence (P35218 whole entry): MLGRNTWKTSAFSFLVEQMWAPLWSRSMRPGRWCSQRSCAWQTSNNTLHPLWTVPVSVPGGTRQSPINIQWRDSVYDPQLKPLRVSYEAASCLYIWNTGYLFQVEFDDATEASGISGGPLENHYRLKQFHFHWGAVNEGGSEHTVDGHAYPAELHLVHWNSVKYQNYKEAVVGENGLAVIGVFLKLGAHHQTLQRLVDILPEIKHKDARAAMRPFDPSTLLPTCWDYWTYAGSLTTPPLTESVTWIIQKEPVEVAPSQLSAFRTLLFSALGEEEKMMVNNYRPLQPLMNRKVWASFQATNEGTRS
property label: pKi
Scale: negative log10 of molar concentration, which is what pKi denotes.

// query Look at this compound and give its reported pKi. C[C@]12CC[C@@H]3c4ccc(CS(N)(=O)=O)cc4CC[C@H]3[C@@H]1CCC2=O
// result 5.83
